# protein stability index values compiled below
B1: KLHDC10 (parent)
chain: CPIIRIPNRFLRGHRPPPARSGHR

- Variants of: B1
- Protocol text: protein stability index of a GFP-peptide fusion (GPS, HEK-293T) (PSI 1-6); higher = more stable;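 note: lentivirally expressed fusions sorted by FACS into six bins by GFP to DsRed ratio, PSI derived from sequencing read proportions per bin multiplied by bin number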
- Experimental parameters: c terminus: a fixed tail appended

Variant notation: C1K
protein stability index: 3.56

Variant notation: H14A
protein stability index: 1.96

Variant notation: C1P
protein stability index: 3.87

Variant notation: I4C
protein stability index: 2.31

Variant notation: R24W
protein stability index: 2.99

Variant notation: N8Q
protein stability index: 1.3

Variant notation: G22K
protein stability index: 1.71

Variant notation: R24E
protein stability index: 1.59

Variant notation: P16N
protein stability index: 2.56

Variant notation: H23D
protein stability index: 1.38

Variant notation: P17Q
protein stability index: 1.57
